FYI, the data here is from the supplement of paper PMC12494721.

System: Clostridium sporogenes DSM 1664
TEST DETAILS: growth (OD595) fold change vs plate DMSO controls (fold change (ratio)); higher = more growth
TEST SETTINGS: 1.25 µM; incubation time: 27 h, anaerobic, 37 °C
Counter-ions that a name gives are not always drawn.
QUANTITY: growth

- COc1cccc(OC)c1C(=O)N[C@@H]1C(=O)N2[C@@H]1SC(C)(C)[C@@H]2C(=O)O [Methicillin sodium]: 0.888
- CO[C@H]1C[C@H](O[C@H]2[C@H](C)[C@@H](O[C@@H]3O[C@H](C)C[C@H](N(C)C)[C@H]3OC(C)=O)[C@@H](C)C[C@@]3(CO3)C(=O)[C@H](C)[C@@H](OC(C)=O)[C@@H](C)[C@@H](C)OC(=O)[C@@H]2C)O[C@@H](C)[C@@H]1OC(C)=O: 1.01
- CC[C@@]1([C@@H]2O[C@@H]([C@H]3O[C@@](O)(CO)[C@H](C)C[C@@H]3C)C[C@@H]2C)CC[C@H]([C@]2(C)CC[C@]3(C[C@H](O)[C@@H](C)[C@@H]([C@@H](C)[C@@H](OC)[C@H](C)C(=O)O)O3)O2)O1 [Monensin sodium salt]: 0.829
- C=CC1=C(C(=O)O)N2C(=O)[C@@H](NC(=O)/C(=N\OCC(=O)O)c3csc(N)n3)[C@H]2SC1: 1.02
- CC(=O)NC[C@H]1CN(c2ccc(N3CCOCC3)c(F)c2)C(=O)O1: 1.05
- CO/N=C(\C(=O)N[C@@H]1C(=O)N2C(C(=O)O)=C(COC(N)=O)CS[C@H]12)c1ccco1 [Cefuroxime sodium salt]: 0.69

---

Reported fold change of Tryptamine concentration values are given for each entry in this list.
Test system: Ruminococcus gnavus DSM 108212
TEST DETAILS: fold change of Tryptamine concentration vs plate DMSO controls (fold change (ratio)); higher = more amine produced
TEST SETTINGS: 20 µM; incubation time: 27 h, anaerobic, 37 °C
QUANTITY: fold change of Tryptamine concentration

* CCn1cc(C(=O)O)c(=O)c2cc(F)c(N3CCNCC3)nc21 | 1.47
* C[C@@H](O)[C@H]1C(=O)N2C(C(=O)O)=C(S[C@@H]3CN[C@H](C(=O)N(C)C)C3)[C@H](C)[C@H]12 | 0.2
* CN1CCN(c2c(F)cc3c(=O)c(C(=O)O)cn4c3c2SCC4)CC1 | 1.16
* CN(C)[C@@H]1C(=O)C(C(N)=O)=C(O)[C@@]2(O)C(=O)C3=C(O)c4c(O)cccc4[C@@](C)(O)[C@H]3[C@H](O)[C@@H]12 [Oxytetracycline dihydrate] | 2.82

---

Item-by-item account of fold change of Histamine concentration
Test system: Klebsiella aerogenes DSM 30053
TEST DETAILS: fold change of Histamine concentration vs plate DMSO controls (fold change (ratio)); higher = more amine produced
TEST SETTINGS: 2.5 µM; incubation time: 27 h, anaerobic, 37 °C
QUANTITY: fold change of Histamine concentration

* CCn1cc(C(=O)O)c(=O)c2cc(F)c(N3CCNCC3)nc21 | 1.18
* CN1CCN(c2c(F)cc3c(=O)c(C(=O)O)cn4c3c2SCC4)CC1 | 1.96
* C[C@@H](O)[C@H]1C(=O)N2C(C(=O)O)=C(S[C@@H]3CN[C@H](C(=O)N(C)C)C3)[C@H](C)[C@H]12 | 0.612
* COc1c(N2CCNC(C)C2)c(F)cc2c(=O)c(C(=O)O)cn(C3CC3)c12 (centres undefined) | 0.158

---

Tested on: Clostridium sporogenes DSM 1664
TEST DETAILS: fold change of Tryptamine concentration vs plate DMSO controls (fold change (ratio)); higher = more amine produced
TEST SETTINGS: 0.6125 µM; incubation time: 27 h, anaerobic, 37 °C
Output 1 for fold change of Tryptamine concentration not less than 1; output -1 otherwise.

- CO[C@H]1C[C@H](O[C@H]2[C@H](C)[C@@H](O[C@@H]3O[C@H](C)C[C@H](N(C)C)[C@H]3OC(C)=O)[C@@H](C)C[C@@]3(CO3)C(=O)[C@H](C)[C@@H](OC(C)=O)[C@@H](C)[C@@H](C)OC(=O)[C@@H]2C)O[C@@H](C)[C@@H]1OC(C)=O [Troleandomycin]: 1
- CC(C)(c1cc(Br)c(O)c(Br)c1)c1cc(Br)c(O)c(Br)c1 [TBBPA]: 1
- CC(=O)NC[C@H]1CN(c2ccc(N3CCOCC3)c(F)c2)C(=O)O1 [Linezolid]: -1
- Cc1ncc([N+](=O)[O-])n1CCO [Metronidazole]: -1

---

Test system: Escherichia coli IAI1
TEST DETAILS: fold change of Putrescine concentration vs plate DMSO controls (fold change (ratio)); higher = more amine produced
TEST SETTINGS: 1.25 µM; incubation time: 27 h, anaerobic, 37 °C
Structures can show the parent of a compound that is named as a salt.
Assign 1.0 to entries whose fold change of Putrescine concentration meets or exceeds 0.9; assign 0.0 to the rest.

* CO[C@@]12[C@H](COC(N)=O)C3=C(C(=O)C(C)=C(N)C3=O)N1C[C@@H]1N[C@@H]12 [Mitomycin C] | 1.0
* CO/N=C(\C(=O)N[C@@H]1C(=O)N2C(C(=O)O)=C(COC(N)=O)CS[C@H]12)c1ccco1 [Cefuroxime sodium salt] | 0.0
* CCn1cc(C(=O)O)c(=O)c2cc(F)c(N3CCNCC3)nc21 [Enoxacin] | 0.0
* C=CC1=C(C(=O)O)N2C(=O)[C@@H](NC(=O)/C(=N\O)c3csc(N)n3)[C@H]2SC1 [Cefdinir] | 0.0
* CCN1CCN(C(=O)N[C@@H](C(=O)N[C@@H]2C(=O)N3C(C(=O)O)=C(CSc4nnnn4C)CS[C@H]23)c2ccc(O)cc2)C(=O)C1=O [Cefoperazone dihydrate] | 0.0

---

Test system: Ruminococcus gnavus DSM 108212
TEST DETAILS: fold change of Tryptamine concentration vs plate DMSO controls (fold change (ratio)); higher = more amine produced
TEST SETTINGS: 5 µM; incubation time: 27 h, anaerobic, 37 °C
# key: entry, value: fold change of Tryptamine concentration
QUANTITY: fold change of Tryptamine concentration

• CN(C)[C@@H]1C(=O)C(C(N)=O)=C(O)[C@@]2(O)C(=O)C3=C(O)c4c(O)cccc4[C@@](C)(O)[C@H]3[C@H](O)[C@@H]12 [Oxytetracycline dihydrate] = 2.71
• C[C@@H](O)[C@H]1C(=O)N2C(C(=O)O)=C(S[C@@H]3CN[C@H](C(=O)N(C)C)C3)[C@H](C)[C@H]12 [Meropenem] = 0.259
• CS(=O)(=O)c1ccc([C@@H](O)[C@@H](CO)NC(=O)C(Cl)Cl)cc1 [Thiamphenicol] = 0.443
• CN1CCN(c2c(F)cc3c(=O)c(C(=O)O)cn4c3c2SCC4)CC1 [Rufloxacin] = 1.51
• COc1c(N2CCNC(C)C2)c(F)cc2c(=O)c(C(=O)O)cn(C3CC3)c12 (stereo not given) [Gatifloxacin] = 2.87

---

System: Ruminococcus gnavus DSM 108212
TEST DETAILS: growth (OD595) fold change vs plate DMSO controls (fold change (ratio)); higher = more growth
TEST SETTINGS: 5 µM; incubation time: 27 h, anaerobic, 37 °C
Counter-ions that a name gives are not always drawn.
Measured growth, listed per entry.
QUANTITY: growth

• CN(C)[C@@H]1C(=O)C(C(N)=O)=C(O)[C@@]2(O)C(=O)C3=C(O)c4c(O)cccc4[C@@](C)(O)[C@H]3[C@H](O)[C@@H]12 [Oxytetracycline dihydrate] = 0.594
• CO/N=C(\C(=O)N[C@@H]1C(=O)N2C(C(=O)[O-])=C(C[n+]3ccn4ncccc43)CS[C@H]12)c1nsc(N)n1 [Cefozopran hydrochloride] = 1.06
• CN1CCN(c2c(F)cc3c(=O)c(C(=O)O)cn4c3c2SCC4)CC1 = 0.61
• COc1c(N2CCNC(C)C2)c(F)cc2c(=O)c(C(=O)O)cn(C3CC3)c12 (centres undefined) = 0.484

---

Tested on: Ruminococcus gnavus DSM 108212
TEST DETAILS: fold change of Tryptamine concentration vs plate DMSO controls (fold change (ratio)); higher = more amine produced
TEST SETTINGS: 5 µM; incubation time: 27 h, anaerobic, 37 °C
Where a name gives a salt, the structure may show the parent alone.
QUANTITY: fold change of Tryptamine concentration

* CO/N=C(\C(=O)N[C@@H]1C(=O)N2C(C(=O)[O-])=C(C[n+]3ccn4ncccc43)CS[C@H]12)c1nsc(N)n1 [Cefozopran hydrochloride] | 0.16
* CCN1CCN(C(=O)N[C@@H](C(=O)N[C@@H]2C(=O)N3C(C(=O)O)=C(CSc4nnnn4C)CS[C@H]23)c2ccc(O)cc2)C(=O)C1=O [Cefoperazone dihydrate] | 0.22
* CCn1cc(C(=O)O)c(=O)c2cc(F)c(N3CCNCC3)nc21 [Enoxacin] | 1.5
